# Target desc: T1, human prolactin receptor (human, UniProt P16471 25-622)
# T1 sequence (looked up): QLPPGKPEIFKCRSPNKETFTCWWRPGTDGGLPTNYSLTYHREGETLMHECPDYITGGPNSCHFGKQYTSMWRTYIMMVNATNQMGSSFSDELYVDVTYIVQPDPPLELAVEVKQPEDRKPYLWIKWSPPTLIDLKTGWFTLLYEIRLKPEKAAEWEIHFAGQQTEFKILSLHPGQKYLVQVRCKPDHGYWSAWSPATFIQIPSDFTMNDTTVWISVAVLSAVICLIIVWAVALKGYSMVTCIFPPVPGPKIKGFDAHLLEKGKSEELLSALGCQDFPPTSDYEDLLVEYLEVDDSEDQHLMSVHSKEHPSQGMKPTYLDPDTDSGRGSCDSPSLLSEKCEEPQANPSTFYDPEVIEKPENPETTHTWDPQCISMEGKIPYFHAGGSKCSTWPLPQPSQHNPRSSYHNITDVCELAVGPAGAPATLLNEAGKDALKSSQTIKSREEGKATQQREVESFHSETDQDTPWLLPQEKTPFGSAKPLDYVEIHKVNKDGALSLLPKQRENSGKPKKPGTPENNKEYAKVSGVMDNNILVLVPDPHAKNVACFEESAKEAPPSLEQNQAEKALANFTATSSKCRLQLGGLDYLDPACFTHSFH
# Assay text: cell-based or functional assay
Measured LHRE-luciferase reporter in HL5 cells, EC50 against WT hPRL of individual entries

Take a look at these entries with their results.
Δ1-13-hPRL (ligand, human) MTLRDLFDRAVVLSHYIHNLSSEMFSEFDKRYTHGRGFITKAINSCHTSSLATPEDKEQAQQMNQKDFLSLIVSILRSWNEPLYHLVTEVRGMQEAPEAILSKAVEIEEQTKRLLEGMELIVSQVHPETKENEIYPVWSGLPSLQMADEESRLSAYYNLLHCLRRDSHKIDNYLKLLKCRIIHNNNC = ~2 fold
Δ1-11-hPRL (ligand, human) MQVTLRDLFDRAVVLSHYIHNLSSEMFSEFDKRYTHGRGFITKAINSCHTSSLATPEDKEQAQQMNQKDFLSLIVSILRSWNEPLYHLVTEVRGMQEAPEAILSKAVEIEEQTKRLLEGMELIVSQVHPETKENEIYPVWSGLPSLQMADEESRLSAYYNLLHCLRRDSHKIDNYLKLLKCRIIHNNNC = ~2 fold
Δ1-12-hPRL (ligand, human) MVTLRDLFDRAVVLSHYIHNLSSEMFSEFDKRYTHGRGFITKAINSCHTSSLATPEDKEQAQQMNQKDFLSLIVSILRSWNEPLYHLVTEVRGMQEAPEAILSKAVEIEEQTKRLLEGMELIVSQVHPETKENEIYPVWSGLPSLQMADEESRLSAYYNLLHCLRRDSHKIDNYLKLLKCRIIHNNNC = ~2 fold

Request: Give its LHRE-luciferase reporter in HL5 cells, EC50 against WT hPRL value. Item: Δ1-14-hPRL (ligand, human) MLRDLFDRAVVLSHYIHNLSSEMFSEFDKRYTHGRGFITKAINSCHTSSLATPEDKEQAQQMNQKDFLSLIVSILRSWNEPLYHLVTEVRGMQEAPEAILSKAVEIEEQTKRLLEGMELIVSQVHPETKENEIYPVWSGLPSLQMADEESRLSAYYNLLHCLRRDSHKIDNYLKLLKCRIIHNNNC
Result: ~3 fold
